Molecular target: T1, human ASPP2^920-1120 (human, UniProt Q13625 920-1120)
T1 chain: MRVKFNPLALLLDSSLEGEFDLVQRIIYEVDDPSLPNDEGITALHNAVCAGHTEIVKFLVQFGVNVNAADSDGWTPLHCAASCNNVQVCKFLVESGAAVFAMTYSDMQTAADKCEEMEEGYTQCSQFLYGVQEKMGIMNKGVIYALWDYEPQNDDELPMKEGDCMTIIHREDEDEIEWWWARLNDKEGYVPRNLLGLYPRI
Test: ITC
List of pKd values.
API: returns pKd as number; meaning -log10 of concentration in mol/L.

# BINDER, NUMERIC RESULT
measured = [
    ("PSEKKAKYQYGGLNSGRPVTPPRTANPPKKR [PP1β^297-327 C-tail peptide]", 6.02),
    ("KNKGKYGQFSGLNPGGRPITPPRNSAKAKA [PP1α^301-330 K330A peptide]", 6.49),
    ("KNKGKYGQFSGLNPGGRPITPPRNSAAAKK [PP1α^301-330 K327A peptide]", 6.28),
    ("PSEKKAKYQYGGLNSGRPVTPPRNSAKAKK (synthetic peptide, termini not stated; the end of the PPII motif (RPVTPPR) is taken as Arg319 by alignment with PP1α 317-323) [PP1β^297-327 chimera with the PP1α C-terminal residues NSAKAKK]", 6.70),
    ("PAEKKKPNATRPVTPPRGMITKQAKK [PP1γ1^298-323 C-tail peptide]", 6.16),
    ("KPAEKKKPNATRPVTPPRVASGLNPSIQ [PP1γ2^297-324 C-tail peptide]", 5.67),
    ("PAEKKKPNATRPVTPPRNSAKAKK (synthetic peptide, termini not stated; the end of the PPII motif (RPVTPPR) is taken as Arg314 by alignment with PP1α 317-323) [PP1γ1^298-323 chimera with the PP1α C-terminal residues NSAKAKK]", 6.49),
    ("KPAEKKKPNATRPVTPPRNSAKAKK (synthetic peptide, termini not stated; γ2 is identical to γ1 through the PPII motif (end taken as Arg314 by alignment), so the canonical entry is used) [PP1γ2^297-324 chimera with the PP1α C-terminal residues NSAKAKK]", 6.49),
]

Entry KNKGKYGQFSGLNPGGRPITPPRNSAKAAK [PP1α^301-330 K329A peptide] has what pKd?
6.47
